assayed.system: T1, EsCas13d, nuclease-dead (Eubacterium siraeum, UniProt B0MS50, R295A;H300A;R849A;H854A)
T1 sequence: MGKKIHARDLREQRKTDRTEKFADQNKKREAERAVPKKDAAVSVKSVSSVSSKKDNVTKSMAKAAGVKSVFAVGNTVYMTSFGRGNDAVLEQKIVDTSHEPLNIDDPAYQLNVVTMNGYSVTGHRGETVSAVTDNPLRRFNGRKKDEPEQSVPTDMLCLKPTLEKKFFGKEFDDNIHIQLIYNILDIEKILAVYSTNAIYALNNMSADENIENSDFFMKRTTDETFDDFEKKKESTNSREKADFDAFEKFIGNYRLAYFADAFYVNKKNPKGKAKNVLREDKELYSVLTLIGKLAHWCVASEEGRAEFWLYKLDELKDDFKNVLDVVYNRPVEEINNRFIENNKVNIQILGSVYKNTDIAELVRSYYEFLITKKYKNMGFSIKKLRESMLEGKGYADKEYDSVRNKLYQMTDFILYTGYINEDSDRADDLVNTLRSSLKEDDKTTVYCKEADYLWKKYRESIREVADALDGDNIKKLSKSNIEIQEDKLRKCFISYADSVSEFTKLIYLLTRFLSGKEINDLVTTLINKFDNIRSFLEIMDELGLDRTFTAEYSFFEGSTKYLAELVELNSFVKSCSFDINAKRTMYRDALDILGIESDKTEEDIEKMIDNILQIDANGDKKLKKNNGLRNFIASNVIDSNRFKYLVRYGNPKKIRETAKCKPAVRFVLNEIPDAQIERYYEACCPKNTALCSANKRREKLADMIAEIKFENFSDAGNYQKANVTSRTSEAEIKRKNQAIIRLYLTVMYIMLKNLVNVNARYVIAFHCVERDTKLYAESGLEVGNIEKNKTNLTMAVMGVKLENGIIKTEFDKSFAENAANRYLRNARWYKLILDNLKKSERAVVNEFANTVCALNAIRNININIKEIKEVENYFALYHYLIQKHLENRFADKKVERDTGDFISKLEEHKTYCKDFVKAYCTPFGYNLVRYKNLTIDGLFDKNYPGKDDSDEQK
assay.text: crRNA (strand 1, pre-loaded); Mg2+; 40 mM Tris-HCl pH 7.5, 150 mM NaCl, 6 mM MgCl2, 1 mM DTT, 0.1% Tween-20, 0.2 mg/ml BSA; 25 C; 10 min per concentration, then washed
measurement.context: tags: His6-TwinStrep-SUMO cleaved; N-terminal SNAP kept (SNAP-Surface 488); label: 3' end held by stalled T7 RNA polymerase
# Lookup of reported Kd keyed by entry
State the answer as a number, implicitly in nM.

target 1 insC 3' of 12,insA 3' of 10 (mixed) RNA 1: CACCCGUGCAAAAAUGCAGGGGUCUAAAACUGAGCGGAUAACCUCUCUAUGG RNA 2: GGGAAUGGAUCCACAUCUACGAAUUCGUACCAUAGAGAGGCUUAAUCCGCUCACCGAGAUCGGAAGAGCACACGU	11.7
target 1 insC 3' of 22,insU 3' of 4 (mixed) RNA 1: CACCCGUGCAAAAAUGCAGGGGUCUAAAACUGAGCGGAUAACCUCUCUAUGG RNA 2: GGGAAUGGAUCCACAUCUACGAAUUCGUACCCAUAGAGAGGUUAUCCGCUUCACCGAGAUCGGAAGAGCACACGU	15.1
target 1 insU 3' of 18,insA 3' of 12 (mixed) RNA 1: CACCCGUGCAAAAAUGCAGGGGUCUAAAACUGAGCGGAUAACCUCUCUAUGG RNA 2: GGGAAUGGAUCCACAUCUACGAAUUCGUACCAUAUGAGAGGAUUAUCCGCUCACCGAGAUCGGAAGAGCACACGU	63

With those in mind, consider the next binder.
**Q:** Given target 1 MT 5'PFS UAA 3'PFS UGC (mixed) RNA 1: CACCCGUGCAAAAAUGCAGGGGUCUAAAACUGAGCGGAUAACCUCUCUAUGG RNA 2: GGGAAUGGAUCCACAUCUACGAAUUCUAACCAUAGAGAGGUUAUCCGCUCAUGCAGAUCGGAAGAGCACACGU , respond with its Kd.
**A:** 31

Taken from paper PMC10786891.
